Molecular target: cyclophilin B (CypB) (Homo sapiens (Human), UniProt P23284)
Sequence (P23284 34-216): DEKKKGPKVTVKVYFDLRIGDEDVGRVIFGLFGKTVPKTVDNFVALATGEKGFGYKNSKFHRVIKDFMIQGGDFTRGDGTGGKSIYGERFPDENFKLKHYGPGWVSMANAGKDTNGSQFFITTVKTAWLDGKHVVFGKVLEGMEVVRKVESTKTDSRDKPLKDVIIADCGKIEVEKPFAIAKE
Experiment: Inhibitor binding to cyclophilin proteins by SPR, CypB
Set-up: unit not given here
Settings: 1:1 binding model
Starred links: 1 amine or outer side, 2 acyl side, 3 side chain; linkers in the order of their positions; H or OH if unused. Non-standard residues stand in square brackets, D forms with d. Residues, ends and D or L forms follow the SMILES beside them. X7 = C[C@H](COCCN1CCS(=O)(=O)CC1)[C@@H](C(=O)[*:2])N(C)[*:1]; X83 = C[C@H](COC(=O)N1CCC(O)CC1)[C@@H](C(=O)[*:2])N(C)[*:1]; X36 = C[C@H](COCCN(C)CC(F)(F)F)[C@@H](C(=O)[*:2])N(C)[*:1]; X32 = C[C@H](CN1CC2(COC2)C1)[C@@H](C(=O)[*:2])N(C)[*:1]; MeBmt = C/C=C/C[C@@H](C)[C@@H](O)[C@H](NC)C(=O)O; NMeL = CN[C@@H](CC(C)C)C(=O)O; NMeV = CN[C@H](C(=O)O)C(C)C; dNMeA = CN[C@H](C)C(=O)O; Abu = CC[C@H](N)C(=O)O
Assay readout: CypB Kd

// returns reported CypB Kd for input C/C=C/C[C@@H](C)[C@@H](O)[C@H]1C(=O)N[C@@H](CC)C(=O)N(C)[C@H](C)C(=O)N(C)[C@@H]([C@H](C)CN2CC3(COC3)C2)C(=O)N[C@@H](C(C)C)C(=O)N(C)[C@@H](CC(C)C)C(=O)N[C@@H](C)C(=O)N[C@H](C)C(=O)N(C)[C@@H](CC(C)C)C(=O)N(C)[C@@H](CC(C)C)C(=O)N(C)[C@@H](C(C)C)C(=O)N1C [Compound 2.5.16] (cyclo(A[dA][NMeL][NMeL][NMeV][MeBmt][Abu][dNMeA][X32]V[NMeL]))
0.7

Given the compound C/C=C/C[C@@H](C)[C@@H](O)[C@H]1C(=O)N[C@@H](CC)C(=O)N(C)[C@H](C)C(=O)N(C)[C@@H]([C@H](C)COC(=O)N2CCC(O)CC2)C(=O)N[C@@H](C(C)C)C(=O)N(C)[C@@H](CC(C)C)C(=O)N[C@@H](C)C(=O)N[C@H](C)C(=O)N(C)[C@@H](CC(C)C)C(=O)N(C)[C@@H](CC(C)C)C(=O)N(C)[C@@H](C(C)C)C(=O)N1C [Compound 2.5.8] (cyclo(A[dA][NMeL][NMeL][NMeV][MeBmt][Abu][dNMeA][X83]V[NMeL])) , what is its reported CypB Kd?
1.0

Quick one: CypB Kd of C/C=C/C[C@@H](C)[C@@H](O)[C@H]1C(=O)N[C@@H](CC)C(=O)N(C)[C@H](C)C(=O)N(C)[C@@H]([C@H](C)CCCN2CCN(CC)CC2)C(=O)N[C@@H](C(C)C)C(=O)N(C)[C@@H](CC(C)C)C(=O)N[C@@H](C)C(=O)N[C@H](C)C(=O)N(C)[C@@H](CC(C)C)C(=O)N(C)[C@@H](CC(C)C)C(=O)N(C)[C@@H](C(C)C)C(=O)N1C (stereo in doubt) ?
0.4

Reported CypB Kd, compound C/C=C/C[C@@H](C)[C@@H](O)[C@H]1C(=O)N[C@@H](CC)C(=O)N(C)[C@H](C)C(=O)N(C)[C@@H]([C@H](C)COCCN2CCS(=O)(=O)CC2)C(=O)N[C@@H](C(C)C)C(=O)N(C)[C@@H](CC(C)C)C(=O)N[C@@H](C)C(=O)N[C@H](C)C(=O)N(C)[C@@H](CC(C)C)C(=O)N(C)[C@@H](CC(C)C)C(=O)N(C)[C@@H](C(C)C)C(=O)N1C [Compound 2.8.2] (cyclo(A[dA][NMeL][NMeL][NMeV][MeBmt][Abu][dNMeA][X7]V[NMeL])) : ____
0.6

Return reported CypB Kd; argument: C/C=C/C[C@@H](C)[C@@H](O)[C@H]1C(=O)N[C@@H](CC)C(=O)N(C)[C@H](C)C(=O)N(C)[C@@H]([C@H](C)COCCN(C)CC(F)(F)F)C(=O)N[C@@H](C(C)C)C(=O)N(C)[C@@H](CC(C)C)C(=O)N[C@@H](C)C(=O)N[C@H](C)C(=O)N(C)[C@@H](CC(C)C)C(=O)N(C)[C@@H](CC(C)C)C(=O)N(C)[C@@H](C(C)C)C(=O)N1C [Compound 2.8.3] (cyclo(A[dA][NMeL][NMeL][NMeV][MeBmt][Abu][dNMeA][X36]V[NMeL]))
3.3
